Assay: Tmax in CD1 mouse at 10 mg/kg, po administered as single dose measured after 24 hrs by LC-MS/MS analysis
Format: ADME, organism-based
Conditions: in vivo
assay.readout: Tmax (h)
I only need the number, in h, no unit after it.

What value of Tmax has been recorded for this entry: Cc1c(C#Cc2ccc(CN3CCC(CO)CC3)cc2)cc(C(F)F)c2cn(C(C(=O)Nc3nccs3)c3ncn4c3CCC43CC3)nc12 (stereo unspecified) 5

====

Epidermal growth factor receptor (Homo sapiens, UniProt P00533, C797S/L858R) data, read-out pIC50
Sequence (P00533 25-1210 C797S/L858R limits assumed): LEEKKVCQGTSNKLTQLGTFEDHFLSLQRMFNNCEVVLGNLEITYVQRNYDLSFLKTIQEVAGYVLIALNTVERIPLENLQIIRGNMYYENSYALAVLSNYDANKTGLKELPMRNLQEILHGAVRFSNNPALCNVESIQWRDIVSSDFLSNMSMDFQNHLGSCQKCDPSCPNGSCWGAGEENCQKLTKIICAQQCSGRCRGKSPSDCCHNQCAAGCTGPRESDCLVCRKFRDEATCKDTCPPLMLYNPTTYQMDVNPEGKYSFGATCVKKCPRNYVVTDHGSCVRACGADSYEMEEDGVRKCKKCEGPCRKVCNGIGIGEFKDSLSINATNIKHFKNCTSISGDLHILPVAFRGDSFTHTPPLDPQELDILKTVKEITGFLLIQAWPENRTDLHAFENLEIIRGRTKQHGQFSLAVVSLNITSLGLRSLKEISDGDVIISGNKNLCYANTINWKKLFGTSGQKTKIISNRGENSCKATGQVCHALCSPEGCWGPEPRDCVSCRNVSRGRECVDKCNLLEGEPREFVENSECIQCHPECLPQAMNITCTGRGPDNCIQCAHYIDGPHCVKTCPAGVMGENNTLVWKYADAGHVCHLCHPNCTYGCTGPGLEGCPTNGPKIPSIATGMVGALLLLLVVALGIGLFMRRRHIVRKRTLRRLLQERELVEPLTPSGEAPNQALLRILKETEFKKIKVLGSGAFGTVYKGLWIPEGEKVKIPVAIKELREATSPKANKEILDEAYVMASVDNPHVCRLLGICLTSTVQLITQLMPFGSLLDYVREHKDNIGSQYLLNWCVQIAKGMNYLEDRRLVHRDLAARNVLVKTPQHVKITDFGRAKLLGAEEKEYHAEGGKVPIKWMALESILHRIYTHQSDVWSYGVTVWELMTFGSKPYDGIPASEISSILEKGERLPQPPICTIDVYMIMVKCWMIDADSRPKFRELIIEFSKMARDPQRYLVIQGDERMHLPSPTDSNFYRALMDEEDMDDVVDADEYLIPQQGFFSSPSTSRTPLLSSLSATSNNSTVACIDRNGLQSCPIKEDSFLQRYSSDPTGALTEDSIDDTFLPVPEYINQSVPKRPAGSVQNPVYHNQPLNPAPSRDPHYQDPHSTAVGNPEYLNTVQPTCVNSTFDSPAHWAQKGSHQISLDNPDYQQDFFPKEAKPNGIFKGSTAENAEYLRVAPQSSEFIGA
Please report pIC50 as the negative decimal logarithm of the molar concentration, giving only the number.

Would you please look over these solved cases?
>>> readout_number("O=C(Nc1nccs1)C(c1ncn2c1C[C@@H](F)C2)n1cc2c(Cl)cc(-c3ccc(N4CCN(C5CC5)CC4)cc3)c(Cl)c2n1 (mixture of isomers)")
7.52
>>> readout_number("Cc1c(C#Cc2ccc(CN3CCC(CO)CC3)cc2)cc(C(F)F)c2cn(C(C(=O)Nc3nccs3)c3ncn4c3CCC43CC3)nc12 (configuration not stated)")
7.70
>>> readout_number("O=C(Nc1nccs1)C(c1ncn2c1C[C@@H](F)C2)n1cc2c(Cl)cc(-c3ccc(N4CCOCC4)cc3)c(Cl)c2n1 (mixture of isomers)")
7.77
>>> readout_number("CCN1CCN(c2ccc(-c3cc(Cl)c4cn(C(C(=O)Nc5nccs5)c5ncn6c5CCC6)nc4c3Cl)cc2)CC1 (configuration not stated)")
7.66
>>> readout_number("Nc1ccc(C#Cc2cc(F)c3c(c2)C(=O)N(C(C(=O)Nc2nccs2)c2ncn4c2CCC4)C3)cn1 (configuration not stated)")
5.96
>>> readout_number("CCN1CCN(c2ccc(-c3cc(Cl)c4cn(C(C(=O)Nc5nccs5)c5ncn6c5C[C@@H](F)C6)nc4c3Cl)cc2)CC1 (mixture of isomers)")
7.82

Here's the next entry for you.
What value of pIC50 has been recorded for this entry: CCN1CCN(c2ccc(-c3cc(F)c4cn(C(C(=O)Nc5nccs5)c5ncn6c5CCC6)nc4c3)cc2)CC1 (configuration not stated) 7.04
